- Test system: CCRF-CEM leukemia
- Assay: NCI tumour cell line growth inhibition, 48 h
Reported Endpoint: TGI

Would you mind listing TGI for each of the following molecules?
1. CC1(C)COC(c2cccc3c2C(=O)c2cccc(Cl)c2-3)=N1
2. CC1=CCC([C@@](C)(O)CCCC(C)(C)N=C=S)CC1 (stereo partly drawn)
3. CC(C)(C)[Si](C)(C)OCC1OC(n2ccc(=O)[nH]c2=O)C(O[Si](C)(C)C(C)(C)C)/C1=C/C#N (stereo not drawn)
4. O=C(OC1CCC(=C2SCCCS2)[C@H]1C1SCCCS1)c1ccccc1 (stereo partly drawn)
5. Clc1ccc(-c2nnc3sc4nc5ccccc5c-4nn23)c(Cl)c1
6. COC1=CC(=O)c2c(c(-c3nc(C)cs3)cn2C)C1=O
7. NC(N)=N/N=C/c1c(Cl)cccc1Cl

**Result**
> 100 µM
48.9 µM
> 100 µM
> 100 µM
> 100 µM
35.1 µM
> 100 µM

Would you mind listing TGI for each of the following molecules?
1. NC1CCN(Cc2ccccc2)CC1
2. Cc1cccc(C)c1NC(=O)C(Cc1c[nH]c2ccccc12)NC(=O)OCc1ccccc1 (stereo not drawn)
3. CSc1cc(-c2cccs2)sc1-c1cc(SC)c(-c2sc(-c3sc(-c4cccs4)cc3SC)cc2SC)s1
4. O=C(c1ccco1)c1c(C(F)(F)F)nc2ccc(Cl)cc2[n+]1[O-]
5. Cc1cc2c(=O)c3ccccc3[nH]c2c(C(N)=O)c1C
6. CN1C(=O)c2ccccc2NC(=O)C12O[C@@H]2c1ccccc1 (stereo partly drawn)
7. COc1cc2c(cc1OC)C(C(c1ccccc1)c1ccccc1)N(C)CC2 (stereo not drawn)
8. COC(=O)c1c2c(c(C)[n+]([O-])c1C)C(=O)C=C(NCc1ccc(F)cc1)C2=O

**Result**
["> 100 µM", "76.9 µM", "> 100 µM", "> 100 µM", "> 100 µM", "> 100 µM", "> 100 µM", "6 µM"]
